Test system: MKK7
Test parameters: concentration: 1 μM, replicates: in singlicate; n = 1;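 further: KINOMEscan kinase panel screen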
Outcome measure: %Inh (%)

[[record]]
compound = "Cc1ccc(NC(=O)Nc2cc(C(C)(C)C)nn2-c2ccccc2)cc1 [GSK1014915]"
unit_spec = "%"
assay_result = 0

[[record]]
compound = "Cc1c(O)cccc1Nc1ccnc2ccc(C(F)(F)F)cc12.Cl [GW466413]"
unit_spec = "%"
assay_result = 0

[[record]]
compound = "CC(C)(C)c1ccc(C(=O)Nc2cn3cc(-c4cccnc4)ccc3n2)cc1"
unit_spec = "%"
assay_result = 0

[[record]]
compound = "Cc1cccc(-c2nc(Nc3ccc4[nH]ncc4c3)c3ccccc3n2)n1 [GW857175]"
unit_spec = "%"
assay_result = 12

[[record]]
compound = "Cc1cc(-c2ccc3c(c2)CC[C@@H](N[C@@H](C)c2ccccc2)C3)cnc1N.Cl [GW412617]"
unit_spec = "%"
assay_result = 1

[[record]]
compound = "Cc1ccc(-c2cc(-c3c[nH]nc3-c3ccccn3)ccn2)cc1 [GW684088]"
unit_spec = "%"
assay_result = 14

[[record]]
compound = "O=C(Nc1n[nH]c2nc(-c3nccs3)c(Br)cc12)C1CCCC1 [SB-742609]"
unit_spec = "%"
assay_result = 0

[[record]]
compound = "Cn1ccc2ncnc(Oc3cccc(C(=O)Nc4ccccc4)c3)c21"
unit_spec = "%"
assay_result = 21

[[record]]
compound = "Cc1ccc(NC(=O)Nc2cccc(Cl)c2)cc1-c1ccc(C(=O)Nc2ccncc2)cc1 [GSK1398468]"
unit_spec = "%"
assay_result = 30

[[record]]
compound = "Cc1ccccc1-n1cnc2c(N)ncnc21 [SKF-97510]"
unit_spec = "%"
assay_result = 0

[[record]]
compound = "CCn1c(-c2ccccn2)nc2cnccc21 [SB-736398]"
unit_spec = "%"
assay_result = 0

[[record]]
compound = "COc1ccccc1CNC(=O)c1cc(C(=O)c2ccccc2C)c[nH]1 [GSK364507]"
unit_spec = "%"
assay_result = 0

[[record]]
compound = "CS(=O)(=O)c1ccc(-c2c(-c3ncn[nH]3)sc(N3CCOCC3)c2C#N)cc1"
unit_spec = "%"
assay_result = 10

[[record]]
compound = "Cc1cccc(-c2cc(Nc3ccncc3)c3ccccc3n2)n1 [GSK223675]"
unit_spec = "%"
assay_result = 5


###

Item-by-item account of %Inh
Test system: DYRK1B
Test parameters: concentration: 1 μM, replicates: in singlicate; n = 1
Outcome measure: %Inh

[[record]]
molecule = "O=C(Nc1n[nH]c2nc(-c3nccs3)c(Br)cc12)C1CC1 [SB-742251]"
outcome_measure = "%Inh"
assay_result = "0%"

[[record]]
molecule = "Nc1ncnc2[nH]c(-c3ccccc3)nc12 [AH5015]"
outcome_measure = "%Inh"
assay_result = "15%"

[[record]]
molecule = "COc1cc2nccc(Nc3ccc(NC(=O)c4ccc(C)cc4)c(O)c3)c2cc1OC.Cl [GW440132]"
outcome_measure = "%Inh"
assay_result = "7%"


###

Tested on: YSK4
Construct: gene MAP3K19
Test parameters: concentration: 1 μM, replicates: in singlicate; n = 1
Entries whose %Inh is below 10% take Fulfilled; entries at or above 10% take Not fulfilled.

[[record]]
compound = "Cc1ccc(NC(=O)Nc2cccc(Cl)c2)cc1-c1ccc(C(=O)Nc2ccncc2)cc1 [GSK1398468]"
qualitative_label = "Not fulfilled"

[[record]]
compound = "COc1ccc(CNC(=O)NC2CCN(c3ccnc(Nc4cc(OC)c(OC)c(OC)c4)n3)C2)cc1 (centres unmarked) [GSK1379748]"
qualitative_label = "Not fulfilled"

[[record]]
compound = "Cc1csc(-c2nc(Nc3ccncc3)c3ccccc3n2)n1 [GW869640]"
qualitative_label = "Not fulfilled"

[[record]]
compound = "O=C(Nc1n[nH]c2nc(-c3nccs3)c(Br)cc12)C1CC1 [SB-742251]"
qualitative_label = "Not fulfilled"

[[record]]
compound = "CS(=O)(=O)c1ccc(-c2c(-c3ncn[nH]3)sc(N3CCOCC3)c2C#N)cc1"
qualitative_label = "Not fulfilled"

[[record]]
compound = "C[C@@H]1CCCCN1c1cc(-c2ccc3c(N)n[nH]c3c2)nc(N)n1 [GSK2258759]"
qualitative_label = "Fulfilled"

[[record]]
compound = "Cc1cc(-c2ccc3c(c2)CC[C@@H](N[C@@H](C)c2ccccc2)C3)cnc1N.Cl [GW412617]"
qualitative_label = "Not fulfilled"

[[record]]
compound = "Cc1ccc(C(=O)Nc2ccc(Nc3ccnc4cc(-c5ccccn5)ccc34)cc2O)cc1.Cl [GW440146]"
qualitative_label = "Not fulfilled"

[[record]]
compound = "Cn1ccc2ncnc(Oc3ccc(Nc4nc5ccccc5[nH]4)cc3)c21"
qualitative_label = "Not fulfilled"

[[record]]
compound = "CN1C(=O)C(Nc2ccc(Cl)c(C(=O)O)c2)=C(c2ccc(Cl)cc2)C1=O [SB-404290]"
qualitative_label = "Fulfilled"

[[record]]
compound = "COc1ccccc1-c1ccc2c(NC(=O)C3CC3)n[nH]c2n1 [SB-711239]"
qualitative_label = "Fulfilled"


Where do the numbers come from? From paper PMC5540273.
